Listing of entries alongside the reported selectivity ratio.
# assay.protocol: Selectivity ratio of IC50 for MDCK cells to EC50 for Influenza A virus Vietnam/1203/ 2004H/H5N1 by neutral red dye uptake assay
# Assay type: ADME, cell-based
# condition: dog, MDCK cells; read-out: Ratio IC50/EC50

Below are worked cases with known answers.
Ask: Could you please provide reported selectivity ratio for Nc1ccn([C@@H]2C[C@H](CO)[C@@H](O)[C@H]2O)c(=O)n1 ? Thanks!
Result: > 276

Ask: Could you please provide reported selectivity ratio for Nc1ccn([C@H]2C[C@@H](CO)[C@H](O)[C@@H]2O)c(=O)n1 ? Thanks!
Result: < 10

Next:
Ask: Could you please provide reported selectivity ratio for NC(=O)c1ncn([C@@H]2O[C@H](CO)[C@@H](O)[C@H]2O)n1 ? Thanks!
Result: > 94

* * *

# System: Influenza B virus
# assay.protocol: Antiviral activity against Influenza B virus Malaysia/2506/2004 infected MDCK cells assessed as inhibition of virus-induced cytopathic effect after 3 days
# Assay type: functional, organism-based, B/Malaysia/2506/2004
# condition: Influenza B virus, B/Malaysia/2506/2004, MDCK, 72 h
Listing of entries alongside the reported EC50.
Write the number in µM without appending the unit.

Ask: Could you please provide reported EC50 for NC(=O)c1ncn([C@@H]2O[C@H](CO)[C@@H](O)[C@H]2O)n1 ? Thanks!
Result: 10.2

Next:
Ask: Could you please provide reported EC50 for Nc1ccn([C@@H]2C[C@H](CO)[C@@H](O)[C@H]2O)c(=O)n1 ? Thanks!
Result: 0.6

* * *

# assay.protocol: Selectivity ratio of IC50 for MDCK cells to EC90 for Influenza A virus California/07/2009 /H1N1 by virus yield reduction assay
# Assay type: ADME, cell-based
# condition: dog, MDCK cells
Listing of entries alongside the reported selectivity ratio.

Ask: Could you please provide reported selectivity ratio for Nc1ccn([C@H]2C[C@@H](CO)[C@H](O)[C@@H]2O)c(=O)n1 ? Thanks!
Result: 1

Ask: Could you please provide reported selectivity ratio for NC(=O)c1ncn([C@@H]2O[C@H](CO)[C@@H](O)[C@H]2O)n1 ? Thanks!
Result: > 101

Proceed to the following item.
Ask: Could you please provide reported selectivity ratio for Nc1ccn([C@@H]2C[C@H](CO)[C@@H](O)[C@H]2O)c(=O)n1 ? Thanks!
Result: > 109

* * *

# assay.protocol: Selectivity ratio of IC50 for MDCK cells to EC50 for inhibition of virus-induced cytopathic effect of Influenza A virus Duck/MN/1525/81/H5N1
# Type: cell-based
# condition: dog, MDCK cells; read-out: Ratio IC50/EC50
Listing of entries alongside the reported selectivity ratio.

Ask: Could you please provide reported selectivity ratio for Nc1ccn([C@@H]2C[C@H](CO)[C@@H](O)[C@H]2O)c(=O)n1 ? Thanks!
Result: > 230

Next:
Ask: Could you please provide reported selectivity ratio for NC(=O)c1ncn([C@@H]2O[C@H](CO)[C@@H](O)[C@H]2O)n1 ? Thanks!
Result: > 37

Ask: Could you please provide reported selectivity ratio for Nc1ccn([C@H]2C[C@@H](CO)[C@H](O)[C@@H]2O)c(=O)n1 ? Thanks!
Result: 1

* * *

# Test system: Influenza B virus
# assay.protocol: Antiviral activity against Influenza B virus Malaysia/2506/2004 infected MDCK cells after 42 to 46 hrs by neutral red dye uptake assay
# Format: functional, organism-based, B/Malaysia/2506/2004
# condition: Influenza B virus, B/Malaysia/2506/2004, MDCK
property: EC50

Ask: Could you please provide reported EC50 for Nc1ccn([C@H]2C[C@@H](CO)[C@H](O)[C@@H]2O)c(=O)n1 ? Thanks!
Result: > 41 µM

Ask: Could you please provide reported EC50 for NC(=O)c1ncn([C@@H]2O[C@H](CO)[C@@H](O)[C@H]2O)n1 [RIBAVIRIN] ? Thanks!
Result: 19.5 µM

Ask: Could you please provide reported EC50 for Nc1ccn([C@@H]2C[C@H](CO)[C@@H](O)[C@H]2O)c(=O)n1 ? Thanks!
Result: 0.8 µM

* * *

# Test system: H5N1 subtype
# assay.protocol: Antiviral activity against Influenza A virus Duck/MN/1525/81/H5N1 infected MDCK cells assessed as inhibition of virus-induced cytopathic effect after 3 days
# Format: functional, organism-based, Influenza A virus (A/duck/Minnesota/1525/1981(H5N1))
# condition: mdck
property: EC50 (nM)
Write the number in nM without appending the unit.

Ask: Could you please provide reported EC50 for Nc1ccn([C@@H]2C[C@H](CO)[C@@H](O)[C@H]2O)c(=O)n1 (racemic) ? Thanks!
Result: 2400

* * *

# assay.protocol: Selectivity ratio of IC50 for MDCK cells to EC90 for Influenza A virus Gull/PA/4175/83/H5N1 by virus yield reduction assay
# Assay type: ADME, cell-based
# condition: dog
property: selectivity ratio

Below are worked cases with known answers.
Ask: Could you please provide reported selectivity ratio for NC(=O)c1ncn([C@@H]2O[C@H](CO)[C@@H](O)[C@H]2O)n1 [RIBAVIRIN] ? Thanks!
Result: > 65

Ask: Could you please provide reported selectivity ratio for Nc1ccn([C@H]2C[C@@H](CO)[C@H](O)[C@@H]2O)c(=O)n1 ? Thanks!
Result: < 10

Next:
Ask: Could you please provide reported selectivity ratio for Nc1ccn([C@@H]2C[C@H](CO)[C@@H](O)[C@H]2O)c(=O)n1 ? Thanks!
Result: > 259

* * *

# assay.protocol: Selectivity ratio of IC50 for MDCK cells to EC50 for inhibition of virus-induced cytopathic effect of Influenza A virus Solomon Islands/03/2006/H1N1
# Assay type: cell-based
# condition: dog, MDCK cells; read-out: Ratio IC50/EC50
Listing of entries alongside the reported selectivity ratio.

Ask: Could you please provide reported selectivity ratio for NC(=O)c1ncn([C@@H]2O[C@H](CO)[C@@H](O)[C@H]2O)n1 ? Thanks!
Result: > 56

Proceed to the following item.
Ask: Could you please provide reported selectivity ratio for Nc1ccn([C@H]2C[C@@H](CO)[C@H](O)[C@@H]2O)c(=O)n1 ? Thanks!
Result: < 10

* * *

# assay.protocol: Selectivity ratio of IC50 for MDCK cells to EC50 for inhibition of virus-induced cytopathic effect of Influenza B virus Malaysia/2506/2004
# Format: cell-based
# condition: dog, MDCK cells; read-out: Ratio IC50/EC50
property: selectivity ratio

Ask: Could you please provide reported selectivity ratio for NC(=O)c1ncn([C@@H]2O[C@H](CO)[C@@H](O)[C@H]2O)n1 [RIBAVIRIN] ? Thanks!
Result: > 128

Next:
Ask: Could you please provide reported selectivity ratio for Nc1ccn([C@@H]2C[C@H](CO)[C@@H](O)[C@H]2O)c(=O)n1 ? Thanks!
Result: > 690

Ask: Could you please provide reported selectivity ratio for Nc1ccn([C@H]2C[C@@H](CO)[C@H](O)[C@@H]2O)c(=O)n1 ? Thanks!
Result: < 10

* * *

# assay.protocol: Selectivity ratio of IC50 for MDCK cells to EC50 for Influenza A virus Gull/PA/4175/83/H5N1 by neutral red dye uptake assay
# Type: ADME, cell-based
# condition: dog, MDCK cells; read-out: Ratio IC50/EC50
property: selectivity ratio

Ask: Could you please provide reported selectivity ratio for Nc1ccn([C@@H]2C[C@H](CO)[C@@H](O)[C@H]2O)c(=O)n1 ? Thanks!
Result: > 414

Ask: Could you please provide reported selectivity ratio for NC(=O)c1ncn([C@@H]2O[C@H](CO)[C@@H](O)[C@H]2O)n1 [RIBAVIRIN] ? Thanks!
Result: > 48

Ask: Could you please provide reported selectivity ratio for Nc1ccn([C@H]2C[C@@H](CO)[C@H](O)[C@@H]2O)c(=O)n1 ? Thanks!
Result: < 10

* * *

# Tested on: Influenza A virus
# assay.protocol: Antiviral activity against Influenza A virus California/07/2009 /H1N1 infected MDCK cells after 42 to 46 hrs by neutral red dye uptake assay
# Assay type: functional, organism-based, A/California/07/2009(H1N1)
# condition: Influenza A virus, A/California/07/2009(H1N1), MDCK
property: pEC50
// pEC50: -log10(molar conc.)

Ask: Could you please provide reported pEC50 for NC(=O)c1ncn([C@@H]2O[C@H](CO)[C@@H](O)[C@H]2O)n1 [RIBAVIRIN] ? Thanks!
Result: 4.71

Proceed to the following item.
Ask: Could you please provide reported pEC50 for Nc1ccn([C@@H]2C[C@H](CO)[C@@H](O)[C@H]2O)c(=O)n1 ? Thanks!
Result: 5.80
